measurementTarget: T1, Rae1(31-368)-Nup98(157-213) heterodimer (human, UniProt P78406 31-368; P52948 157-213)
T1 construct: also called Rae1-Nup98; Rae1-Nup98 complex
T1 sequence (P78406 31-368, chain 1 of 2): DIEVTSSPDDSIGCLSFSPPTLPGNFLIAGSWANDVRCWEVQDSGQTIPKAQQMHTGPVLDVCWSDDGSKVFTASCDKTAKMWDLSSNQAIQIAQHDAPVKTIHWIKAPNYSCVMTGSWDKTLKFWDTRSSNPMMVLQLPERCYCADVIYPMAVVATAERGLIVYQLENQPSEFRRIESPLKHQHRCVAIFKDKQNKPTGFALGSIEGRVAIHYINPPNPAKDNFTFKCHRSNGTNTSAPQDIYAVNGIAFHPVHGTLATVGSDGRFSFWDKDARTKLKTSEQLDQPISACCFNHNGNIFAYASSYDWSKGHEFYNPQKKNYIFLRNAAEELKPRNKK
T1 sequence (P52948 157-213, chain 2 of 2): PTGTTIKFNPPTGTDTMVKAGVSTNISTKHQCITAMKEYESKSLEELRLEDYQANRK
testMethodNotes: ITC
conditionDescription: both partners purified
Attribute: stoichiometry N
Give a plain numeric answer without units written out.

[
  {
    "binder": "YSQLAEEQPMEID (source: synthetic peptide) [SARS-CoV-2 ORF6-D53A]",
    "reportedMetric": "stoichiometry N",
    "valueMeasured": 0.71
  },
  {
    "binder": "YSQLDEEEPMEID (source: synthetic peptide) [SARS-CoV-2 ORF6-Q56E]",
    "reportedMetric": "stoichiometry N",
    "valueMeasured": 0.781
  },
  {
    "binder": "YSQLDEAQPMEID (source: synthetic peptide) [SARS-CoV-2 ORF6-E55A]",
    "reportedMetric": "stoichiometry N",
    "valueMeasured": 0.65
  }
]

Continue with the binder presented below.
What value of measured stoichiometry N is listed for YSQLDAEQPMEID (source: synthetic peptide) [SARS-CoV-2 ORF6-E54A] ? 0.59
